Target: human FGF-1 (flg) receptor tyrosine kinase (Homo sapiens, UniProt P11362)
Construct: amplify a fragment of DNA that codes for the intracellular tyrosine kinase domain
Sequence (P11362 478-767 limits assumed): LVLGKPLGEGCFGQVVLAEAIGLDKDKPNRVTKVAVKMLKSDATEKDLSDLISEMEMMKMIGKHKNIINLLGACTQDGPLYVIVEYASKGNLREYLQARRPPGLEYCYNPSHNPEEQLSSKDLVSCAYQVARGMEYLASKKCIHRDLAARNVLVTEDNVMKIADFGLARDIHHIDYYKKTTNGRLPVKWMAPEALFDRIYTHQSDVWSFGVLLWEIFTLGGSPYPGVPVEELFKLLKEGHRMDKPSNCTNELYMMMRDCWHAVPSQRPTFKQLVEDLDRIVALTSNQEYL
Assay: FGF receptor tyrosine kinase assay (FGFr-TK)
Settings: 10 min at 25° C., glutamate-tyrosine co-polymer substrate; read-out: FGFr-TK inhibition, IC50
Readout Kind: IC50 (nM)

Smiles Repr: CC[N+]([O-])(CC)CCOc1ccc(Nc2ncc3cc(-c4c(Cl)cccc4Cl)c(=O)n(C)c3n2)cc1
Target Desc: human FGF-1 (flg) receptor tyrosine kinase (Homo sapiens, UniProt P11362)
Readout Units: nM
Readout Number: 63
